Please respond with reported Clinical score for every item in the list.
Tested on: adjuvant arthritis (AA) SD rats
Test: Adjuvant arthritis (AA) rat model
Type: in vivo
Details: 20 mg/kg subcutaneous once every three days; AA SD rats; maximum score 16
Where no end group is shown, it is not given here.

substance	Clinical score
mPEG-bALD10k-Arg-Gly-Ala-Asp-Arg-Ala-Gly-Gly-Gly-Gly-Arg-Gly-Asp ({mPEG‑bALD 10 kDa}-RGADRAGGGGRGD) [mPEG-bALD10k-HM-1]	5.40 ± 1.09

Please state, for each entry, its recorded Clinical score.
1. mPEG-SC10k-Arg-Gly-Ala-Asp-Arg-Ala-Gly-Gly-Gly-Gly-Arg-Gly-Asp ({mPEG‑SC 10 kDa}-RGADRAGGGGRGD) [mPEG-SC10k-HM-1]
2. mPEG2-NHS10k-Arg-Gly-Ala-Asp-Arg-Ala-Gly-Gly-Gly-Gly-Arg-Gly-Asp ({mPEG2‑NHS 10 kDa}-RGADRAGGGGRGD) [mPEG2-NHS10k-HM-1]
3. mPEG-ALD10k-Arg-Gly-Ala-Asp-Arg-Ala-Gly-Gly-Gly-Gly-Arg-Gly-Asp ({mPEG‑ALD 10 kDa}-RGADRAGGGGRGD) [mPEG-ALD10k-HM-1]

1: 5.52 ± 1.07; 2: 5.53 ± 1.09; 3: 5.39 ± 1.10

###

Test system: Colorectal cancer tumor cells
Assay: MTT proliferation inhibition, colorectal cancer cells
Type: cell-based, human
Design: concentration or dose not given beside the values
Conditions: 48 h
Experimental: The activity of mPEG-HM-1 to inhibit the growth of various tumor cells was examined by MTT assay. The tumor cells were cultured to a concentration of 90% or more in a 37° C., 5% CO2 incubator and collected by trypsinization. […] The absorbance was measured at a measurement wavelength of 570 nm and a reference wavelength of 630 nm using a microplate reader, and the rate of growth inhibition (proliferation inhibition, PI) was calculated. […]
Where no end group is shown, it is not given here.
Label condition met for high-side rate of growth inhibition (at or above 60%) and condition not met for low-side rate of growth inhibition (below it).

Example entries and their recorded answers appear below.
substance	label-class
mPEG-SC20k-Arg-Gly-Ala-Asp-Arg-Ala-Gly-Gly-Gly-Gly-Arg-Gly-Asp ({mPEG‑SC 20 kDa}-RGADRAGGGGRGD) [mPEG-SC20k-HM-1]	condition met
mPEG-bALD10k-Arg-Gly-Ala-Asp-Arg-Ala-Gly-Gly-Gly-Gly-Arg-Gly-Asp ({mPEG‑bALD 10 kDa}-RGADRAGGGGRGD) [mPEG-bALD10k-HM-1]	condition met
mPEG-ALD10k-Arg-Gly-Ala-Asp-Arg-Ala-Gly-Gly-Gly-Gly-Arg-Gly-Asp ({mPEG‑ALD 10 kDa}-RGADRAGGGGRGD) [mPEG-ALD10k-HM-1]	condition met

State whether the measured rate of growth inhibition reaches 60%, counting equality as reaching it, for mPEG2-NHS10k-Arg-Gly-Ala-Asp-Arg-Ala-Gly-Gly-Gly-Gly-Arg-Gly-Asp ({mPEG2‑NHS 10 kDa}-RGADRAGGGGRGD) [mPEG2-NHS10k-HM-1]
condition not met

How about mPEG-bALD40k-Arg-Gly-Ala-Asp-Arg-Ala-Gly-Gly-Gly-Gly-Arg-Gly-Asp ({mPEG‑bALD 40 kDa}-RGADRAGGGGRGD) [mPEG-bALD40k-HM-1] ?
condition met

How about mPEG-bALD20k-Arg-Gly-Ala-Asp-Arg-Ala-Gly-Gly-Gly-Gly-Arg-Gly-Asp ({mPEG‑bALD 20 kDa}-RGADRAGGGGRGD) [mPEG-bALD20k-HM-1] ?
condition met

How about mPEG2-NHS20k-Arg-Gly-Ala-Asp-Arg-Ala-Gly-Gly-Gly-Gly-Arg-Gly-Asp ({mPEG2‑NHS 20 kDa}-RGADRAGGGGRGD) [mPEG2-NHS20k-HM-1] ?
condition not met

How about mPEG-ALD5k-Arg-Gly-Ala-Asp-Arg-Ala-Gly-Gly-Gly-Gly-Arg-Gly-Asp ({mPEG‑ALD 5 kDa}-RGADRAGGGGRGD) [mPEG-ALD5k-HM-1] ?
condition not met

How about mPEG2-NHS5k-Arg-Gly-Ala-Asp-Arg-Ala-Gly-Gly-Gly-Gly-Arg-Gly-Asp ({mPEG2‑NHS 5 kDa}-RGADRAGGGGRGD) [mPEG2-NHS5k-HM-1] ?
condition not met

How about mPEG-SC40k-Arg-Gly-Ala-Asp-Arg-Ala-Gly-Gly-Gly-Gly-Arg-Gly-Asp ({mPEG‑SC 40 kDa}-RGADRAGGGGRGD) [mPEG-SC40k-HM-1] ?
condition met

How about mPEG-SC5k-Arg-Gly-Ala-Asp-Arg-Ala-Gly-Gly-Gly-Gly-Arg-Gly-Asp ({mPEG‑SC 5 kDa}-RGADRAGGGGRGD) [mPEG-SC5k-HM-1] ?
condition not met
